# Test system: Hs-578T
# Protocol Text: NCI tumour cell line growth inhibition, 48 h
The source made the active and inactive calls. Rule as the data show it: active = GI50 up to about 1.1 µM and inactive = higher.
Reported Endpoint: GI50

# Compound, Observed Measurement
records = [
    ("CCOC(=O)c1c2ccccc2n2c(=O)n(-c3ccc(OC)cc3)nnc12", "19.9 µM (inactive)"),
]

Let us move to another entry and its GI50.
Request: Look at this compound and give its reported GI50. Clc1ccc(Cl)c(SCCCN2CCNCC2)c1
Result: 16.1 µM (inactive)

====

# Tested on: SK-MEL-2
# Protocol Text: NCI tumour cell line growth inhibition, 48 h
Active and inactive are the calls of the source. No stated cut-off is given here; in the data, active = GI50 up to about 1.1 µM and inactive = higher.
Outcome field: choose from active, inactive

For orientation, consider the following solved cases.
# Compound, Group Label
measured = [
    ("N=C(N)NCC1CCCCCCN1 (configuration not stated)", "inactive"),
    ("CCOC(=O)C(=O)Nc1c(CC)cccc1C(C)C", "inactive"),
    ("N#C/C(=C/C=C/c1ccco1)C(N)=O", "inactive"),
    ("O=C(O)CC1(CC(=O)O)Nc2ccccc2SC1=O", "inactive"),
    ("COc1c(/C=C/C=O)cc2c(c1OC)OCO2", "inactive"),
]

Request: Per the records of this test, what outcome belongs to O=C1c2cccc([N+](=O)[O-])c2C(=O)N1Cc1ccccc1 ?
Result: inactive
